# PROTOCOL: NCI Yeast Anticancer Drug Screen. Data for the cln2 rad14 strain (AID 165);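 also: 0% = growth equal to vehicle treated cultures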
# EXPERIMENTAL_CONTEXT: S. cerevisiae cln2 rad14 strain, at 5.0 µM (retest, dose inferred, filed as 0.5), hits give high values
About 79,000 compounds went through this panel and 15% of them were active in at least one assay; those are over-represented in the sample as a whole. The source made the active and inactive calls. Rule as the data show it: active = growth inhibition above about 70%; inactive = the rest.
PROPERTY_NAME: growth inhibition

- COMPOUND: "CCCCCCCCCCCC[N+]1(C)CCCC1c1cccnc1 (configuration not stated)"
  PROPERTY_NAME: "growth inhibition"
  OBSERVED: "5% (inactive)"
- COMPOUND: "OC(CN1CCC(c2ccccc2)CC1)c1ccc(Br)cc1 (configuration not stated)"
  PROPERTY_NAME: "growth inhibition"
  OBSERVED: "64% (inactive)"
- COMPOUND: "C/C=C(\\CCC1NCCc2c1[nH]c1ccccc21)[Si](C)(C)C (configuration not stated)"
  PROPERTY_NAME: "growth inhibition"
  OBSERVED: "4% (inactive)"
- COMPOUND: "COc1cccc(/C=C2\\CCCc3ccccc3C2=O)c1"
  PROPERTY_NAME: "growth inhibition"
  OBSERVED: "-7% (inactive)"
- COMPOUND: "COC([C@@H](OC(=O)c1ccccc1)[C@H](OC(=O)c1ccccc1)C(O)COC(=O)c1ccccc1)n1cc(C)c(=O)[nH]c1=O (some centres not stated)"
  PROPERTY_NAME: "growth inhibition"
  OBSERVED: "8% (inactive)"
- COMPOUND: "Fc1ccc(NC(=S)SCc2ccccc2)cc1F"
  PROPERTY_NAME: "growth inhibition"
  OBSERVED: "-6% (inactive)"
- COMPOUND: "O=C(CSc1nnc(Cc2ccccc2)o1)Nc1ccc(Cl)cc1[N+](=O)[O-]"
  PROPERTY_NAME: "growth inhibition"
  OBSERVED: "10% (inactive)"
- COMPOUND: "COc1ccc(Cc2nc3ccccc3s2)cc1OC"
  PROPERTY_NAME: "growth inhibition"
  OBSERVED: "42% (inactive)"
- COMPOUND: "C#CCn1cnc2c(N)ncnc21"
  PROPERTY_NAME: "growth inhibition"
  OBSERVED: "3% (inactive)"
- COMPOUND: "Cc1ccc(N=C(N)Nc2ccc(C)cn2)nc1"
  PROPERTY_NAME: "growth inhibition"
  OBSERVED: "19% (inactive)"
- COMPOUND: "O=C(NCCN1CCCC1)c1cn2c(ccc3sc4ccccc4c(=O)c32)n1"
  PROPERTY_NAME: "growth inhibition"
  OBSERVED: "19% (inactive)"
- COMPOUND: "COc1ccc(C(=O)Cc2ccc(Cl)cc2)cc1OC"
  PROPERTY_NAME: "growth inhibition"
  OBSERVED: "9% (inactive)"
- COMPOUND: "COc1c2c3c(ccnc3c3ccccc13)C(=O)N2C"
  PROPERTY_NAME: "growth inhibition"
  OBSERVED: "-3% (inactive)"
- COMPOUND: "CN(CN(C)N=Nc1ccc(Cl)cc1)CN(C)N=Nc1ccc(Cl)cc1"
  PROPERTY_NAME: "growth inhibition"
  OBSERVED: "-6% (inactive)"
- COMPOUND: "Cc1cccc2c1Oc1ccccc1C2N1C(=O)/C(=C/c2cccs2)SC1=S (configuration not stated)"
  PROPERTY_NAME: "growth inhibition"
  OBSERVED: "-11% (inactive)"
- COMPOUND: "COc1ccc(/C=N/n2c(C)nc3c(sc(=S)n3-c3ccccc3)c2=O)cc1"
  PROPERTY_NAME: "growth inhibition"
  OBSERVED: "-15% (inactive)"
- COMPOUND: "COc1cc(Cc2n[nH]c(=S)n2-c2ccccc2)c(S(N)(=O)=O)cc1OC"
  PROPERTY_NAME: "growth inhibition"
  OBSERVED: "0% (inactive)"
- COMPOUND: "COc1cc(C2c3cc4c(cc3[C@@H](OCCN)[C@H]3COC(=O)C23)OCO4)cc(OC)c1O (some centres not stated)"
  PROPERTY_NAME: "growth inhibition"
  OBSERVED: "29% (inactive)"
- COMPOUND: "Nc1ccccc1Sc1ccccc1"
  PROPERTY_NAME: "growth inhibition"
  OBSERVED: "29% (inactive)"
- COMPOUND: "CCN(CC)CCNc1ccc(C)c2oc3ccc(O)cc3c(=O)c12"
  PROPERTY_NAME: "growth inhibition"
  OBSERVED: "1% (inactive)"
- COMPOUND: "COc1cc(NCC(C)(O)CN2CCC(C)CC2C)c2ncccc2c1 (configuration not stated)"
  PROPERTY_NAME: "growth inhibition"
  OBSERVED: "13% (inactive)"
- COMPOUND: "CC(=O)c1c(O)c(C)c(O)c2c1OC1=CC(=O)c3c(C)noc3C12C (configuration not stated)"
  PROPERTY_NAME: "growth inhibition"
  OBSERVED: "10% (inactive)"
